- Species: Rattus norvegicus
- Assay Info: Open TG-GATES - Regimen: Daily Repeat
- Type: toxicity, organism-based, Sprague-Dawley
- Set-up: regimen Daily Repeat, gender Male, age 6 weeks
- Protocol Conditions: in vivo, po, 0 mg/kg, […], tissue Plasma, route gavage, dose level Control, time 28 day
Give CRE for every item shown.
# number only, unit mg/dL dropped from output

Which CRE reading was recorded for the molecule CC(C)N(CCC(C(N)=O)(c1ccccc1)c1ccccn1)C(C)C (stereo unspecified) [DISOPYRAMIDE] ?
0.2

Which CRE reading was recorded for the molecule OCCOCCN1CCN(C(c2ccccc2)c2ccc(Cl)cc2)CC1 (stereo unspecified) [HYDROXYZINE] ?
0.2

Which CRE reading was recorded for the molecule CN(C)CCC=C1c2ccccc2COc2ccccc21 [DOXEPIN] ?
0.2

Which CRE reading was recorded for the molecule CN(C)C(=N)N=C(N)N [METFORMIN] ?
0.2

Which CRE reading was recorded for the molecule ClC(Cl)(Cl)Cl [CARBON TETRACHLORIDE] ?
0.5

Which CRE reading was recorded for the molecule O=NN(CCCl)C(=O)NC1CCCCC1 [LOMUSTINE] ?
0.4

Which CRE reading was recorded for the molecule CC1=C(CC(=O)O)c2cc(F)ccc2/C1=C\c1ccc([S+](C)[O-])cc1 (stereo unspecified) ?
0.3

Which CRE reading was recorded for the molecule CCCCc1oc2ccccc2c1C(=O)c1cc(I)c(OCCN(CC)CC)c(I)c1 [AMIODARONE] ?
0.4

Which CRE reading was recorded for the molecule CCC1(c2ccccc2)C(=O)NC(=O)NC1=O [PHENOBARBITAL] ?
0.4

Which CRE reading was recorded for the molecule CCc1oc2ccccc2c1C(=O)c1cc(Br)c(O)c(Br)c1 [BENZBROMARONE] ?
0.6

Which CRE reading was recorded for the molecule CC[C@H]1[C@@H]2C[C@H]3[C@@H]4N(C)c5ccccc5[C@]45C[C@@H]([C@@H]2[C@H]5O)N3[C@@H]1O [AJMALINE] ?
0.6

* * *

- Species on record: Rattus norvegicus
- Assay Info: Open TG-GATES - Regimen: Daily Repeat
- Assay type: toxicity, organism-based, Sprague-Dawley
- Design: regimen Daily Repeat, gender Male, age 6 weeks
- Protocol Conditions: in vivo, po, 0 mg/kg, […], tissue Blood, route gavage, dose level Control, time 28 day
Readout Type: RBC (x10_4/ul)
# number only, unit x10_4/ul dropped from output

Which RBC reading was recorded for the compound CC[C@H]1[C@@H]2C[C@H]3[C@@H]4N(C)c5ccccc5[C@]45C[C@@H]([C@@H]2[C@H]5O)N3[C@@H]1O [AJMALINE] ?
794.6

Which RBC reading was recorded for the compound CN(C)CCC=C1c2ccccc2COc2ccccc21 [DOXEPIN] ?
731.6

Which RBC reading was recorded for the compound CN(C)C(=N)N=C(N)N [METFORMIN] ?
759.6

Which RBC reading was recorded for the compound ClC(Cl)(Cl)Cl [CARBON TETRACHLORIDE] ?
785.8

Which RBC reading was recorded for the compound OCCOCCN1CCN(C(c2ccccc2)c2ccc(Cl)cc2)CC1 (stereo not given) [HYDROXYZINE] ?
766.4

* * *

Give ALP for every item shown.
- Species: Rattus norvegicus
- Assay Info: Open TG-GATES - Regimen: Daily Repeat
- Type: toxicity, organism-based, Sprague-Dawley
- Set-up: regimen Daily Repeat, gender Male, age 6 weeks
- Protocol Conditions: in vivo, po, 0 mg/kg, 72 h, tissue Plasma, route gavage, dose level Control, time 3 day
# number only, unit IU/L dropped from output

Which ALP reading was recorded for the molecule `CC[C@H]1[C@@H]2C[C@H]3[C@@H]4N(C)c5ccccc5[C@]45C[C@@H]([C@@H]2[C@H]5O)N3[C@@H]1O` ?
1003.6

Which ALP reading was recorded for the molecule `O=NN(CCCl)C(=O)NC1CCCCC1` ?
1042.6

Which ALP reading was recorded for the molecule CC1=C(CC(=O)O)c2cc(F)ccc2/C1=C\c1ccc([S+](C)[O-])cc1 (stereo not given) ?
1760.4

Which ALP reading was recorded for the molecule `CCC1(c2ccccc2)C(=O)NC(=O)NC1=O` ?
912.8

Which ALP reading was recorded for the molecule OCCOCCN1CCN(C(c2ccccc2)c2ccc(Cl)cc2)CC1 (stereo not given) [HYDROXYZINE] ?
1652.8

* * *

- Organism: Rattus norvegicus
- Assay Info: Open TG-GATES - Regimen: Single
- Format: toxicity, organism-based, Sprague-Dawley
- Design: regimen Single, gender Male, age 6 weeks
- Protocol Conditions: in vivo, po, 100 mg/kg, 24 h, tissue Blood, route gavage, dose level Low
Readout Type: RBC (x10_4/ul)
# number only, unit x10_4/ul dropped from output

Which RBC reading was recorded for the compound `O=NN1CCOCC1` ?
669.4

Which RBC reading was recorded for the compound CN(C)CCC=C1c2ccccc2COc2ccccc21 [DOXEPIN] ?
641.6

Which RBC reading was recorded for the compound `CCC1(c2ccccc2)C(=O)NC(=O)NC1=O` ?
607.6

Which RBC reading was recorded for the compound `CN(C)C(=N)N=C(N)N` ?
596

* * *

Give MCHC for every item shown.
- Species on record: Rattus norvegicus
- Assay Info: Open TG-GATES - Regimen: Single
- Type: toxicity, organism-based, Sprague-Dawley
- Design: regimen Single, gender Male, age 6 weeks
- Protocol Conditions: in vivo, po, 0 mg/kg, 9 h, tissue Blood, route gavage, dose level Control

Which MCHC reading was recorded for the compound OCCOCCN1CCN(C(c2ccccc2)c2ccc(Cl)cc2)CC1 (centres undefined) [HYDROXYZINE] ?
32.4%

Which MCHC reading was recorded for the compound CC[C@H]1[C@@H]2C[C@H]3[C@@H]4N(C)c5ccccc5[C@]45C[C@@H]([C@@H]2[C@H]5O)N3[C@@H]1O [AJMALINE] ?
32.9%

Which MCHC reading was recorded for the compound CN(C)CCC=C1c2ccccc2COc2ccccc21 [DOXEPIN] ?
32.9%

Which MCHC reading was recorded for the compound ClC(Cl)(Cl)Cl [CARBON TETRACHLORIDE] ?
34.6%

Which MCHC reading was recorded for the compound CCc1oc2ccccc2c1C(=O)c1cc(Br)c(O)c(Br)c1 [BENZBROMARONE] ?
33.5%

Which MCHC reading was recorded for the compound CCC1(c2ccccc2)C(=O)NC(=O)NC1=O [PHENOBARBITAL] ?
36%

Which MCHC reading was recorded for the compound CC(C)N(CCC(C(N)=O)(c1ccccc1)c1ccccn1)C(C)C (centres undefined) [DISOPYRAMIDE] ?
32.3%

Which MCHC reading was recorded for the compound CC1=C(CC(=O)O)c2cc(F)ccc2/C1=C\c1ccc([S+](C)[O-])cc1 (centres undefined) ?
32.7%

Which MCHC reading was recorded for the compound O=NN(CCCl)C(=O)NC1CCCCC1 [LOMUSTINE] ?
32.6%

* * *

Give Ca for every item shown.
- Species on record: Rattus norvegicus
- Assay Info: Open TG-GATES - Regimen: Daily Repeat
- Format: toxicity, organism-based, Sprague-Dawley
- Design: regimen Daily Repeat, gender Male, age 6 weeks
- Protocol Conditions: in vivo, po, 0 mg/kg, […], tissue Plasma, route gavage, dose level Control, time 14 day
# number only, unit mg/dL dropped from output

Which Ca reading was recorded for the compound ClC(Cl)(Cl)Cl [CARBON TETRACHLORIDE] ?
10.4

Which Ca reading was recorded for the compound CCc1oc2ccccc2c1C(=O)c1cc(Br)c(O)c(Br)c1 [BENZBROMARONE] ?
10.2

Which Ca reading was recorded for the compound O=NN(CCCl)C(=O)NC1CCCCC1 [LOMUSTINE] ?
11.3

Which Ca reading was recorded for the compound CC1=C(CC(=O)O)c2cc(F)ccc2/C1=C\c1ccc([S+](C)[O-])cc1 (stereo not given) ?
11.1

Which Ca reading was recorded for the compound OCCOCCN1CCN(C(c2ccccc2)c2ccc(Cl)cc2)CC1 (stereo not given) [HYDROXYZINE] ?
10.6

* * *

Give gamma-GTP for every item shown.
- Species: Rattus norvegicus
- Assay Info: Open TG-GATES - Regimen: Single
- Type: toxicity, organism-based, Sprague-Dawley
- Parameters: regimen Single, gender Male, age 6 weeks
- Protocol Conditions: in vivo, po, 0 mg/kg, 24 h, tissue Plasma, route gavage, dose level Control
# number only, unit IU/L dropped from output

Which gamma-GTP reading was recorded for the molecule CC(C)N(CCC(C(N)=O)(c1ccccc1)c1ccccn1)C(C)C (stereo unspecified) [DISOPYRAMIDE] ?
2

Which gamma-GTP reading was recorded for the molecule O=NN(CCCl)C(=O)NC1CCCCC1 [LOMUSTINE] ?
1.4

Which gamma-GTP reading was recorded for the molecule O=NN1CCOCC1 [N-NITROSOMORPHOLINE] ?
1

Which gamma-GTP reading was recorded for the molecule CN(C)CCC=C1c2ccccc2COc2ccccc21 [DOXEPIN] ?
1

Which gamma-GTP reading was recorded for the molecule CN(C)C(=N)N=C(N)N [METFORMIN] ?
1

Which gamma-GTP reading was recorded for the molecule CCc1oc2ccccc2c1C(=O)c1cc(Br)c(O)c(Br)c1 [BENZBROMARONE] ?
1

Which gamma-GTP reading was recorded for the molecule OCCOCCN1CCN(C(c2ccccc2)c2ccc(Cl)cc2)CC1 (stereo unspecified) [HYDROXYZINE] ?
0.8

Which gamma-GTP reading was recorded for the molecule ClC(Cl)(Cl)Cl [CARBON TETRACHLORIDE] ?
1.2

Which gamma-GTP reading was recorded for the molecule CC[C@H]1[C@@H]2C[C@H]3[C@@H]4N(C)c5ccccc5[C@]45C[C@@H]([C@@H]2[C@H]5O)N3[C@@H]1O [AJMALINE] ?
1.2

Which gamma-GTP reading was recorded for the molecule CCC1(c2ccccc2)C(=O)NC(=O)NC1=O [PHENOBARBITAL] ?
1.4

Which gamma-GTP reading was recorded for the molecule CC1=C(CC(=O)O)c2cc(F)ccc2/C1=C\c1ccc([S+](C)[O-])cc1 (stereo unspecified) ?
1
